system: MTT (mouse pheochromocytoma); assay: IC50 of cell viability (ATP content); conditions: (24 or 48 h)
Where a name gives a salt, the structure may show the parent alone.
QUANTITY_KIND: IC50 of cell viability

>  <COMPOUND>
CN(C)CCOC(=O)[C@@H](c1ccccc1)C1(O)CCCC1 [Cyclopentolate hydrochloride]

>  <QUANTITY_KIND>
IC50 of cell viability

>  <RESULT>
> 46 µM

$$$$
>  <COMPOUND>
CC(=O)Nc1c(I)c(C(=O)N[C@H]2[C@H](O)[C@H](O)[C@H](CO)O[C@@H]2O)c(I)c(N(C)C(C)=O)c1I [Metrizamide]

>  <QUANTITY_KIND>
IC50 of cell viability

>  <RESULT>
> 46 µM

$$$$
>  <COMPOUND>
CC1=C[C@@H](O)CC(C)(C)[C@@H]1/C=C/C(C)=C/C=C/C(C)=C/C=C/C=C(C)/C=C/C=C(C)/C=C/C1=C(C)C[C@H](O)CC1(C)C [LUTEIN]

>  <QUANTITY_KIND>
IC50 of cell viability

>  <RESULT>
> 46 µM

$$$$
>  <COMPOUND>
Cc1ccc(C(=O)c2ccc(CC(=O)[O-])n2C)cc1.O.O.[Na+] [Tolmetin sodium salt dihydrate]

>  <QUANTITY_KIND>
IC50 of cell viability

>  <RESULT>
> 46 µM

$$$$
>  <COMPOUND>
COC1C(OC(=O)/C=C/C=C/C=C/C=C/C(=O)O)CCC2(CO2)C1C1(C)OC1CC=C(C)C (stereo not drawn) [FUMAGILLIN]

>  <QUANTITY_KIND>
IC50 of cell viability

>  <RESULT>
> 46 µM

$$$$

Can you share its IC50 of cell viability? I mean this compound: O=P(O)(O)OP(=O)(O)O [Phosphotex]
> 46 µM

Can you share its IC50 of cell viability? I mean this compound: CCOC(=O)N1\C=C/N(C)C1=S [Carbimazole]
> 46 µM

Can you share its IC50 of cell viability? I mean this compound: CN1C(=O)C[C@H](c2ccccc2)C1=O [Phensuximide]
> 46 µM
